tested on: MYC mRNA expression in SU-DHL-4 cells; assay: Suppressive effect on MYC mRNA expression (Test Example 2); type: cell-based, human; settings: test compound 100 nmol/L, 6 hours, qRT-PCR corrected by ACTB, GAPDH, HPRT1
Listing of recorded Suppression Rate of MYC mRNA Expression (%) by entry.
Reply with just the number (in %).

{"compound": "CCC(=O)N1c2ccccc2[C@H](Nc2ccc(-c3nnc(CNC(=O)[C@H]4CC[C@H](N[C@@H]5C[C@H](C)N(C(=O)CC)c6ccccc65)CC4)o3)cc2)C[C@@H]1C", "reported": 97.4}
{"compound": "CCC(=O)N1c2ccccc2[C@H](Nc2ccc(NC(=O)CCCC(=O)NC3CCC(Cn4cc(-c5c(C)noc5C)ccc4=O)CC3)cc2)C[C@@H]1C (stereo partly shown) [Compound 16p]", "reported": 96.2}
{"compound": "CCC(=O)N1c2ccccc2[C@H](Nc2ccc(C(=O)NCCCNC(=O)c3ccc(C4=N[C@@H](CC(=O)OC5CCC(O)CC5)c5nnc(C)n5-c5sc(C)c(C)c54)cc3)cc2)C[C@@H]1C (stereo partly shown) [Compound 13d]", "reported": 97.2}

Suppression Rate of MYC mRNA Expression (%) lookup needed for Cc1sc2c(c1C)C(c1ccc(Cl)cc1)=N[C@@H](CC(=O)NCCOCCOCCOCCOCCOCCOCCOCCNC(=O)C[C@@H]1N=C(c3ccc(Cl)cc3)c3c(sc(C)c3C)-n3c(C)nnc31)c1nnc(C)n1-2 [compound 2, reference compound] , thanks.
57.7

###

Listing of recorded IC90 by entry.
test system: SU-DHL-4 cells; assay: Inhibitory effect on cell viability in SU-DHL-4 cell line (Test Example 1); type: cell-based, human; conditions: SU-DHL-4 cells, 72 hours, Cell Counting Kit-8; concentration showing 90% inhibition of cell viability; read-out: SU-DHL-4 Cell Viability Inhibition Rate IC90
Reply with just the number (in nM).

{"compound": "CCC(=O)N1c2ccccc2[C@H](NCCCCC(=O)NCc2cn(-c3ccc(N[C@@H]4C[C@H](C)N(C(=O)CC)c5ccccc54)cc3)nn2)C[C@@H]1C (relative stereo) [Compound 12f]", "target-under-test": "SU-DHL-4 cells", "unit-of-measurement": "nM", "IC90": 0.42}

IC90 lookup needed for CCC(=O)N1c2ccccc2[C@H](Nc2ccc(NC(=O)N3CC(NC(=O)C4CCC(N[C@@H]5C[C@H](C)N(C(=O)CC)c6ccccc65)CC4)C3)cc2)C[C@@H]1C (stereo partly drawn) , thanks.
10.8

Please answer likewise for CCNC(=O)C[C@@H]1N=C(c2ccc(SCCCCSc3ccc(C4=N[C@@H](CC(=O)NCC)c5nnc(C)n5-c5ccc(OC)cc54)cc3)cc2)c2cc(OC)ccc2-n2c(C)nnc21 [compound 1, reference compound]
2560

###

tested on: SU-DHL-4 cells; test: Inhibitory effect on cell viability in SU-DHL-4 cell line (Test Example 1); assay type: cell-based, human; details: Homo sapiens; SU-DHL-4 (wild type) cells, 72 hours; calculated using the measurement results of test example 1; read-out: SU-DHL-4 WT IC50
Description: […]
Binary label based on IC50 with cut-off 0.1 nM: below gives fulfilled, not below gives not fulfilled.

Field: example entries. Status: answers known.
{"molecule": "CCC(=O)N1c2ccccc2[C@H](Nc2ccc(CNCc3cn(-c4ccc(N[C@@H]5C[C@H](C)N(C(=O)CC)c6ccccc65)cc4)nn3)cc2)C[C@@H]1C [Compound 5h]", "class-name": "fulfilled"}
{"molecule": "CCC(=O)N1c2ccccc2[C@H](Nc2ccc(-n3cc(CNC(=O)N4CCC(N[C@@H]5C[C@H](C)N(C(=O)CC)c6ccccc65)CC4)nn3)cc2)C[C@@H]1C (relative stereo) [Compound 10b]", "class-name": "not fulfilled"}
{"molecule": "CCC(=O)N1c2ccccc2[C@H](Nc2ccc(C(=O)NC3CCN(C(=O)c4ccc(N[C@@H]5C[C@H](C)N(C(=O)CC)c6ccccc65)cc4)CC3)cc2)C[C@@H]1C (relative stereo) [Compound 1c]", "class-name": "not fulfilled"}

Shifting focus to the molecule that follows.
Hello, I'm reviewing records and need to know if IC50 of CCC(=O)N1c2ccccc2[C@H](Nc2ccc(NC(=O)CNC(=O)Nc3ccc(C4=NCc5nnc(C)n5-c5sc(C)c(C)c54)cc3)cc2)C[C@@H]1C [Compound 14f] is below 0.1 nM. Could you check?
not fulfilled
